Overview of reported systric pressure of median sacral artery, change at 24 hr (%) across a group of compounds:
Test system: spontaneously hypertensive rats
METHOD_NOTES: Blood pressure depressing action in spontaneously hypertensive rats
Type: in vivo
CONDITION: male spontaneously hypertensive rats, oral, 3.0 mg/kg, 24 hr after administration, N=6
Quote the value and follow it with the unit of measurement.

>>> observed_measurement("COC(=O)C1=C(C)NC(C)=C(C(=O)OC)C1c1ccccc1[N+](=O)[O-] [Nifedipine, reference compound]")
"-1.1±1.06%"
>>> observed_measurement("CC1=C(C(=O)OCCN(C)Cc2ccc(Cl)cc2Cl)C(c2cccc([N+](=O)[O-])c2)C(C(=O)OCC2CC2)=C(C)N1 (stereo not shown)")
"-13.0±5.94%"
>>> observed_measurement("COC(=O)C1=C(C)NC(C)=C(C(=O)OCCN(C)Cc2ccccc2)C1c1cccc([N+](=O)[O-])c1 (stereo not shown) [Nicardipine, reference compound]")
"-4.2±1.88%"

# context switch: different compound, same systric pressure of median sacral artery, change at 24 hr (%)
Per the reported spontaneously hypertensive rats data, CC1=C(C(=O)OCCN2Cc3ccc(Cl)cc3C2)C(c2cccc([N+](=O)[O-])c2)C(C(=O)OCC2CC2)=C(C)N1 (stereo not shown) has systric pressure of median sacral artery, change at 24 hr (%) of -14.3±4.09%
